Molecular target: FLT3 (Homo sapiens, UniProt P36888)
Construct: made in house
Sequence (P36888 27-993): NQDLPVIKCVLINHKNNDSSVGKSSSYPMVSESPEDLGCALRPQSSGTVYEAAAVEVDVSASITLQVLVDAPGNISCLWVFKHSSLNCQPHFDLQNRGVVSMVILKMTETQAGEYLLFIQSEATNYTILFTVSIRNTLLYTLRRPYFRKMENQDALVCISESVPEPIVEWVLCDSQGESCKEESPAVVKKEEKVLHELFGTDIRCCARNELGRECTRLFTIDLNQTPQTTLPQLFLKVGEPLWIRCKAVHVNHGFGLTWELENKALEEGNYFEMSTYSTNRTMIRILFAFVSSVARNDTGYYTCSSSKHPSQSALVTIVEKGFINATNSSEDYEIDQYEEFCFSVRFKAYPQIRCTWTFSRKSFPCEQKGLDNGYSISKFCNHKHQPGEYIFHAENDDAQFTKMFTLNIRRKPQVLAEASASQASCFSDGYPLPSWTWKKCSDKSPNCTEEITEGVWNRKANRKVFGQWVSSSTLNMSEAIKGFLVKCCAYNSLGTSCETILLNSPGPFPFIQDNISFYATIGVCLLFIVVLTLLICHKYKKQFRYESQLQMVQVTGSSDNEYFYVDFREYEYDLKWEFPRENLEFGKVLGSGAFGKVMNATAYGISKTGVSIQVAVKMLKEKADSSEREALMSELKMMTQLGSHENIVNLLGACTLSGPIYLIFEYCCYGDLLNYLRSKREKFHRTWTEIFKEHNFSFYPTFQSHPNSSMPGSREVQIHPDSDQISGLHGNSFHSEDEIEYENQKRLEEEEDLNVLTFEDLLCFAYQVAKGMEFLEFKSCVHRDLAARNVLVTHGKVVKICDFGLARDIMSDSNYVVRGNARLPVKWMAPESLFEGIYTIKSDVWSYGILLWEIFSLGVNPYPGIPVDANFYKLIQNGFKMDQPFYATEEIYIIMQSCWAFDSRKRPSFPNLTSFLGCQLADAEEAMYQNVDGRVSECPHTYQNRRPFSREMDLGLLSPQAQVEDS
Experiment: Competition binding assay, FLT3 Kd
Description: Competition binding assays used herein were developed, validated and performed as described in Fabian et al., Nature Biotechnology 2005, 23, 329-336. […] Kds were determined using an eleven point threefold serial dilutions. […] The kinase concentration in the eluates was measured by quantitative PCR.
measure: Kd

> print(dat)
                                   compound    valuemeasured
1  O[C@@H]1Cc2ccccc2[C@H]1Nc1nc2ccc(Cn3cnc4cccnc43)cc2o1   200 to 1000 nM
2  Cn1cc(-c2cn(Cc3ccc4nc(N[C@@H]5CCCC[C@H]5O)sc4c3)cn2)cn1        > 5000 nM
3  COc1cc2ncn(Cc3ccc4nc(N[C@@H]5c6ccccc6C[C@@H]5O)sc4c3)c2cc1OC  1000 to 5000 nM
4  CSc1cnc2c(c1)ncn2Cc1ccc2nc(N[C@@H]3CCCC[C@H]3O)sc2c1   200 to 1000 nM
5  COc1cc2ncn(Cc3ccc4nc(N[C@@H]5CCCC5O)sc4c3)c2cc1OC (stereo in doubt)  1000 to 5000 nM
6  CSCc1cnc2c(c1)ncn2Cc1ccc2nc(N[C@@H]3CCCC[C@H]3O)sc2c1   200 to 1000 nM
7  CN(C)C(=O)c1cnc2c(c1)ncn2Cc1ccc2nc(N[C@@H]3CCCC[C@H]3O)sc2c1  1000 to 5000 nM
8  O[C@@H]1Cc2ccccc2[C@H]1Nc1nc2ccc(Cn3cnc4cncnc43)cc2s1        > 5000 nM
9  Cn1cc(-c2cn(Cc3ccc4nc(N[C@@H]5CCCC[C@H]5O)oc4c3)cn2)cn1  1000 to 5000 nM

---

We begin with a simple list: items and their reported IC50.
molecular target: UniProtKB P07333; assay: HEK293 CSF1R phosphorylation MSD assay; format: cell-based; parameters: expressed in transfected cells; host or cells: HEK293; details: HEK293 cells, M-CSF stimulated CSF1R phosphorylation, MSD; read-out: HEK293 pCSF1R M-CSF MSD:IC50
Sequence (P07333 20-972): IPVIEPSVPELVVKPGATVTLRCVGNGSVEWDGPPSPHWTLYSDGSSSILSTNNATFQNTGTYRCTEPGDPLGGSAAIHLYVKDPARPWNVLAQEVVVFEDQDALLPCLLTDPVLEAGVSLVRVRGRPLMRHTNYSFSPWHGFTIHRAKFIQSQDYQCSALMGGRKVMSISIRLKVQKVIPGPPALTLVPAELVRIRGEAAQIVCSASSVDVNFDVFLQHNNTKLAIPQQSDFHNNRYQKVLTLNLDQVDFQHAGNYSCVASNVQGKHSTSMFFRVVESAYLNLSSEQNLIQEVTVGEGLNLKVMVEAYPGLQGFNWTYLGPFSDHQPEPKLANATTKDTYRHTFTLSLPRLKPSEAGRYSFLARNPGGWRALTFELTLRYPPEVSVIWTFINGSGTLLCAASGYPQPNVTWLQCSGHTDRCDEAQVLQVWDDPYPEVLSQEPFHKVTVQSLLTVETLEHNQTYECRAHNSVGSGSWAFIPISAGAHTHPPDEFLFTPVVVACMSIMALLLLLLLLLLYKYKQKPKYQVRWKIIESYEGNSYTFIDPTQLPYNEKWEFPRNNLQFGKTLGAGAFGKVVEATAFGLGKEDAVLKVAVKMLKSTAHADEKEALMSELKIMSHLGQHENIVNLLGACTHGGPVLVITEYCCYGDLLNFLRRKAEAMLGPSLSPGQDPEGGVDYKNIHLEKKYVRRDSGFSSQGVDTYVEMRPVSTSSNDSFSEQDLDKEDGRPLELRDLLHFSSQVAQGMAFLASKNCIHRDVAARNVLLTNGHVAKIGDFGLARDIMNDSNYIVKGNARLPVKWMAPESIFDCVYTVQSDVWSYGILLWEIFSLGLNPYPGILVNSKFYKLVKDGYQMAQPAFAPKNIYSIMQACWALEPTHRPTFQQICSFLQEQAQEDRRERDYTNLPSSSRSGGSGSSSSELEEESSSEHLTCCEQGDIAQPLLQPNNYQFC
measure: IC50

> print(dat)
                                smilesstring  valuemeasured
 1  N#Cc1ccc2ncc(Cc3ccc4nc(N[C@@H]5CCCC[C@H]5O)sc4c3)n2n1        ≤ 50 nM
 2  O[C@H]1CCCC[C@H]1Nc1nc2ccc(Cn3cnc4cc(F)cnc43)cc2s1   50 to 200 nM
 3  COCCOc1ccn2c(Cc3ccc4nc(N[C@@H]5CCCC[C@H]5O)sc4c3)cnc2c1        ≤ 50 nM
 4  OC[C@H]1CCC[C@@H](Nc2nc3ccc(Cn4cnc5cc(F)cnc54)cc3s2)C1   50 to 200 nM
 5  O[C@@H]1CCCC[C@H]1Nc1nc2ccc(Cn3cnc4cc(F)cnc43)cc2o1   50 to 200 nM
 6  O[C@@H]1CCCC[C@H]1Nc1nc2ccc(Cn3cnc4cc(Br)cc(F)c43)cc2s1   50 to 200 nM
 7  O[C@@H]1CCCC[C@H]1Nc1nc2ccc(Cc3cnc4ccc(-n5cccn5)cn34)cc2s1  200 to 500 nM
 8  O[C@@H]1CCCC[C@H]1Nc1nc2ccc(Cc3cnc4cc(-n5cccn5)ccn34)cc2s1        ≤ 50 nM
 9  Cn1nnc(-c2ccc3c(c2)ncn3Cc2ccc3nc(N[C@@H]4CCCC[C@H]4O)sc3c2)n1        ≤ 50 nM
10  N#Cc1ccc2ncn(Cc3ccc4nc(N[C@@H]5CCCC[C@H]5O)sc4c3)c2c1   50 to 200 nM
11  O[C@@H]1CCCC[C@H]1Nc1nc2ccc(Cn3cnc4cc(-c5cc[nH]n5)ccc43)cc2s1        ≤ 50 nM
12  O=C1CCCCN1c1ccc2c(c1)ncn2Cc1ccc2nc(N[C@@H]3CCCC[C@H]3O)sc2c1  200 to 500 nM
13  O[C@@H]1CCCC[C@H]1Nc1nc2ccc(Cn3cnc4cccnc43)c(F)c2s1       > 500 nM

---

Biological target: FLT3 (Homo sapiens, UniProt P36888)
Construct: made in house
Assay: Competition binding assay, FLT3 Kd
Settings: competition binding
Procedure: Competition binding assays used herein were developed, validated and performed as described in Fabian et al., Nature Biotechnology 2005, 23, 329-336. […] Kds were determined using an eleven point threefold serial dilutions. […] The kinase concentration in the eluates was measured by quantitative PCR.
measure: Kd

> print(dat)
                                   molecule    valuemeasured
1  O[C@@H]1CCCC[C@H]1Nc1nc2ccc(Cc3cnc4cc(N5CCOCC5)ccn34)cc2s1 [Example 187]        > 5000 nM
2  CS[C@@H]1CCCC[C@H]1Nc1nc2ccc(Cn3cnc4cc(F)cnc43)cc2s1 [Example 181]  1000 to 5000 nM
3  O[C@@H]1CCCC[C@H]1Nc1nc2ccc(Cn3cnc4cc(F)cc(F)c43)cc2s1 [Example 148]  1000 to 5000 nM
4  OC[C@@H]1CCC[C@@H](Nc2nc3ccc(Cn4cnc5cc(F)cnc54)cc3s2)C1 [Example 192]  1000 to 5000 nM
5  O[C@@H]1CCCC[C@H]1Nc1nc2ccc(Cn3cnc4cccnc43)c(F)c2s1 [Example 164]  1000 to 5000 nM
6  O[C@@H]1CCCC[C@H]1Nc1nc2ccc(Cn3cnc4cc(OC(F)(F)F)ccc43)cc2s1 [Example 149]  1000 to 5000 nM
7  Oc1ccc2c(c1)ncn2Cc1ccc2nc(N[C@@H]3CCCC[C@H]3O)sc2c1 [Example 147]   200 to 1000 nM
8  O[C@@H]1CCCC[C@H]1Nc1nc2ccc(Cn3cnc4cc(Br)cc(F)c43)cc2s1 [Example 203]   200 to 1000 nM

---

Target: FLT3 (Homo sapiens, UniProt P36888)
Construct: made in house
Sequence (P36888 27-993): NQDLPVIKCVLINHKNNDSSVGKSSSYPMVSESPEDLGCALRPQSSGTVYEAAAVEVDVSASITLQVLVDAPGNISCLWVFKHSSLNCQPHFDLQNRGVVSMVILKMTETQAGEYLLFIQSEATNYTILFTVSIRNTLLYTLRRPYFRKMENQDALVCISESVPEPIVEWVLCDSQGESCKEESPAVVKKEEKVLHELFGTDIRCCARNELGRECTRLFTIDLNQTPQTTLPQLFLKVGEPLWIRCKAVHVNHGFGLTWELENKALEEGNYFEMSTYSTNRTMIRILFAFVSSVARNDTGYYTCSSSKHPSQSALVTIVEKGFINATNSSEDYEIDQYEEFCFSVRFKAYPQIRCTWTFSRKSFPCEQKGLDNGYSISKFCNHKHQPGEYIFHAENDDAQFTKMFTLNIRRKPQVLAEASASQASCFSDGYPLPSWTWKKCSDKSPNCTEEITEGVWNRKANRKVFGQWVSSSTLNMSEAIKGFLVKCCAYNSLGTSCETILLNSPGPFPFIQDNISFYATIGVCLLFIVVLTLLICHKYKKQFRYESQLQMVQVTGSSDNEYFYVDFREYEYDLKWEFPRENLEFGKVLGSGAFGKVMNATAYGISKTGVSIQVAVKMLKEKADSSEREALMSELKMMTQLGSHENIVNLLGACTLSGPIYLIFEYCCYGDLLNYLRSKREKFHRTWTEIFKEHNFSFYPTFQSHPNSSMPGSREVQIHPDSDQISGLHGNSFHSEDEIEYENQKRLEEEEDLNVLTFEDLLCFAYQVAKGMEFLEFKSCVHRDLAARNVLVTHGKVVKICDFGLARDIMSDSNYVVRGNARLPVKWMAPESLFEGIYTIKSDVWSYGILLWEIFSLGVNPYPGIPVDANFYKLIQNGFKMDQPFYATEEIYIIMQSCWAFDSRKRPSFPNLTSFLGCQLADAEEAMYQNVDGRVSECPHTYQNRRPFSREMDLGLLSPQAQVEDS
Experiment: Competition binding assay, FLT3 Kd
Settings: competition binding
measure: Kd

> print(dat)
                               smilesstring  measure    valuemeasured
1  Fc1cnc2c(c1)ncn2Cc1ccc2nc(N[C@H]3C=CCCC3)sc2c1       Kd  1000 to 5000 nM
2  O[C@@H]1CCCC[C@H]1Nc1nc2ccc(Cn3cnc4cc(C5=CCOCC5)ccc43)cc2s1       Kd         ≤ 200 nM
3  O[C@@H]1CCCC[C@H]1Nc1nc2ccc(Cn3cnc4cc(-n5cncn5)ccc43)cc2s1       Kd  1000 to 5000 nM
4  N#Cc1ccc2c(c1)ncn2Cc1ccc2nc(N[C@@H]3CCCC[C@H]3O)oc2c1       Kd        > 5000 nM
5  O[C@@H]1CCCC[C@H]1Nc1nc2ccc(Cn3cnc4ccc(Br)cc43)cc2s1       Kd  1000 to 5000 nM
6  OCc1ccc2ncc(Cc3ccc4nc(N[C@@H]5CCCC[C@H]5O)sc4c3)n2n1       Kd   200 to 1000 nM
7  COc1ccccc1Nc1nc2ccc(Cn3cnc4cc(F)cnc43)cc2s1       Kd        > 5000 nM
8  COc1nc2c(cc1Br)ncn2Cc1ccc2nc(N[C@@H]3CCCC[C@H]3O)sc2c1       Kd   200 to 1000 nM
